Data provenance is paper PMC9672126.

B1: Flag-BNIP3 wild-type (BCL2/adenovirus e1B 19 kDa protein interacting protein 3) [rat] / GFP-LC3 (microtubule-associated protein 1 light chain 3; plasmid pEGFP-C1-LC3B) [not stated] (parent)
chain 1: MSQSGEENLQGSWVELHFSNGNGSSVPASVSIYNGDMEKILLDAQHESGRSSSKSSHCDSPPRSQTPQDTNRAEIDTHSFGEKNSTLSEEDYIERRREVESILKKNSDWIWDWSSRPENVPPKEFLFKHPKRTATLSMRNTSVMKKGGIFSADFLKVFLPSLLLSHLLAIGLGIYIGRRLTTSTSTF
chain 2: not shown

- Variants of: B1
- assay_remarks: co-IP (anti-Flag immunoprecipitation, western blot, quantified)
- run_conditions: with GFP-LC3 (microtubule-associated protein 1 light chain 3; plasmid pEGFP-C1-LC3B); HeLa cells, 48 h after transfection; n = 3; means ± SEM; read off a plot
Quick reference: ratio to parent (Folds of Control) of the listed items.
Reply with the value as a number alone.

Use these answered entries as a reference point.
chain 1 S60A T66A    0.13
chain 1 S60A    0.33
chain 1 S60D    0.85

Request: Report ratio to parent (Folds of Control), nothing else, for this variant: chain 1 S60E
Response: 0.85
